Provide the reported Percent Effect of each item.
# Tested System: Aspartate--tRNA(Asp/Asn) ligase (Mycobacterium tuberculosis (strain ATCC 25618 / H37Rv))
# Sequence (whole entry): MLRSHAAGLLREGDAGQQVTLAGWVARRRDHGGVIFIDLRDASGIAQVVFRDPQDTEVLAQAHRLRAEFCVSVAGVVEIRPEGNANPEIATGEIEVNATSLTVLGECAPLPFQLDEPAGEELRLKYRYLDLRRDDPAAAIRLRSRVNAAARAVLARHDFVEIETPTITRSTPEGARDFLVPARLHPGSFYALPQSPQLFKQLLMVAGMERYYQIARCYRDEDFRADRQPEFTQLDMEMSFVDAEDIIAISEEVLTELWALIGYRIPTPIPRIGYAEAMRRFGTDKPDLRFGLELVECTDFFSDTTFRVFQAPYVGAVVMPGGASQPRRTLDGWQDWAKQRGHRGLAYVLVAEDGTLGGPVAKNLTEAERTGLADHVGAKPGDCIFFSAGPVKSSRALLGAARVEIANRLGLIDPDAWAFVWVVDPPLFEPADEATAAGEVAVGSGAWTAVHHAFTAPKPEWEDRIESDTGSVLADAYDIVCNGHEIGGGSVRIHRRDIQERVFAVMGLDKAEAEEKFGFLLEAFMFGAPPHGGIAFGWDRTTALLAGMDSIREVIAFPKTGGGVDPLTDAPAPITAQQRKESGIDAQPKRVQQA
# Assay Text: Assay for Asp RNA synthetase-1 from Mycobacterium tuberculosis
# Format: functional
# Parameters: scale not given: in the data most compounds retested in dose-response had high values
# Condition Label: 30 µM
Answers are plain numbers, in %.

Provide Percent Effect values for the following items, in order.
1. Cc1nnc(C(C)N2CCN(Cc3ccc4c(c3)OCO4)CC2)o1 (centres undefined)
2. CCN(CC)S(=O)(=O)N1CCCC(c2cccc(C(=O)O)c2)C1 (centres undefined)
3. CC(C)CN1CCC(c2nc3c([nH]2)CC(C)(C)CNC3=O)C1 (centres undefined)
4. CCc1nc2n(n1)CC(Nc1cc(C)nc3ncnn13)CC2 (centres undefined)
5. CCOC(=O)N1CCN(C(=O)CCn2ccc3c(OC)cccc32)CC1
6. CC(OCC1CC1)C(=O)N1CCCN(Cc2cnn(C)c2)CC1 (centres undefined)
7. Cc1cccc(OCCC(=O)N2CCCN(C(N)=O)CC2)c1C
8. CN(Cc1cccc(F)c1)C1CCN(CCc2ccccn2)CC1

Response line:
[-0.657, -1.97, 1.44, -4.28, 0.389, 1.41, 0.542, -3.32]

List reported Percent Effect for each of these compounds:
1. O=C(NCCc1nnc2n1CCC2)NCC1(c2cccc(F)c2)CC1
2. Cc1nn(C)c(C)c1CC(=O)N1CCCC(n2cccn2)C1 (centres undefined)
3. CC(C)c1nnc(NC(=O)NCc2ccc(CO)c(F)c2)s1
4. CC(C)CN(Cc1nc2c(cnn2C)c(=O)[nH]1)C(C)C
5. CC(C)n1ncc2cc(NC(=O)N3CCC(N4CCCC4)C3)cnc21 (centres undefined)

Response line:
[-2.55, -4.75, 1.21, -2.77, -5.1]

# return Percent Effect for each item in the list
1. CN(C(=O)Cc1c[nH]c2ccccc12)C1CCN(c2ccccn2)CC1
2. Cn1cnnc1C1CCCN(C(=O)c2cnc3ccccc3n2)C1 (centres undefined)
3. O=C(CCc1cscn1)NS(=O)(=O)c1ccc2ccccc2c1
4. CN(C)C(=O)CN1CCCCC1c1nc(N)ncc1-c1ccccc1 (centres undefined)
5. C1CC(CN2CCOCC3(CCN(C4CCOCC4)C3)C2)CCO1 (centres undefined)
6. Cc1cc(C)cc(C2(C(=O)N3CCCC(n4cncn4)C3)CC2)c1 (centres undefined)
7. Cc1nn(C)cc1C(=O)Nc1cccc(CN2CCC(CO)CC2)c1

Response line:
1: -1.54; 2: -1.76; 3: -3.43; 4: -1.04; 5: 3.19; 6: 0.962; 7: 3.06

Lab note: each compound below needs its Percent Effect filled in.
1. CCN(CC)C1CCN(C(=O)NCc2nncn2CC)CC1
2. Cc1cccc2nc(C(=O)N3CCC(Nc4cccnn4)CC3)cn12
3. CN(Cc1nnc2n1CCC2)C(=O)NCCc1ccc2c(c1)OCO2

Response line:
1. -0.573
2. -1.93
3. 10.3

Per the reported Aspartate--tRNA(Asp/Asn) ligase (Mycobacterium tuberculosis (strain ATCC 25618 / H37Rv)) data, CC(C)c1noc(C(C)N2CCN(Cc3ccsc3)CC2)n1 (centres undefined) has Percent Effect of -3.93

Data origin: ChEMBL document CHEMBL3988442
